The values you see were collected from PubChem BioAssay (NCATS).

# studySystem: Atrial natriuretic peptide receptor 2 (Homo sapiens)
# protocolDetails: Natriuretic polypeptide receptor (hNpr2) antagonism - Pilot subtype selectivity assay (AID 1347050)
# conditionsUsed: NPR2-expressing cells, cGMP antagonist-mode read-out; series mostly up to 38.3 µM
# Excerpt: F. Fan, B. F. Binkowski, B. L. Butler, P. F. Stecha, M. K. Lewis, K. V. Wood, Novel genetically encoded biosensors using firefly luciferase. ACS Chem Biol 3, 346-351 (2008). PROTOCOL TABLE (as described by Inglese J, Shamu CE and Guy RK. 2007) […] 7. […] GloSensor baseline pre-read luminescence measured using CCD-based camera (Viewlux). […] 10. […] GloSensor post-hNppC luminescence measured using CCD-based camera (Viewlux). […] 1. […] Cells counted with Invitrogen Countess (30,000,000 - 50,000,000 cells/flask). […]
Results filed as inconclusive are left out. Activity calls are given as the source filed them. Calls follow the shape of the full dose curve.
propertyLabel: outcome

Take a look at these entries with their results.
INSERT INTO assay_data (compound, recordedresult) VALUES
  ('C[C@@]1(C2CCCC2)Cc2cc(OCC(=O)O)c(Cl)c(Cl)c2C1=O', 'inactive'),
  ('CCCCCC(O)CCCC(=O)O (stereo not given)', 'inactive'),
  ('CC(N)=NCCCC[C@@H](N)C(=O)O', 'inactive'),
  ('CCCCOC(=O)NS(=O)(=O)c1sc(CC(C)C)cc1-c1ccc(Cn2c(CC)nc3c(C)cc(C)nc32)cc1', 'inactive'),
  ('NCCCNCCCCNCCCN', 'inactive'),
  ('Cn1cc(C(=O)OCC2CCN(CCNS(C)(=O)=O)CC2)c2ccccc21', 'inactive'),
  ('CCCCCCCCCC[Si](C)(C)CCC(=O)NC(Cc1ccc(C)cc1)c1ccccc1 (stereo not given)', 'inactive'),
  ('Fc1ccc(CN(C2=NCCN2)c2c(Cl)cccc2Cl)cc1', 'inactive');

Please go through the list and note outcome for each compound.
1. O=c1[nH]c(=S)[nH]c(-c2ccccc2)c1Cc1c(O)ccc2ccccc12
2. O=C1C2C=CC=CC2=NC(=S)N1CCN1CCC(=C(c2ccc(F)cc2)c2ccc(F)cc2)CC1 (stereo not given)
3. CC(=O)NCCc1c[nH]c2ccc(O)cc12
4. Oc1ccc(Cn2cc[nH]c2=S)cc1
5. CSC(N)=NCCC[C@H](N)C(=O)O
6. C=CC1(C)CC(=O)C2(O)C(C)(O1)C(OC(C)=O)C(O)C1C(C)(C)CCC(O)C12C (stereo not given)

["inactive", "inactive", "inactive", "inactive", "inactive", "inactive"]

Please go through the list and note outcome for each compound.
1. [Li+]
2. NC(N)=NC(N)=Nc1cccc(Cl)c1
3. C/C(=C\c1ccc(C(=O)O)cc1)c1ccc2c(c1)C(C)(C)CCC2(C)C
4. CCc1ccc2c(-c3cccc(Cl)c3)nc(=O)n(CC)c2n1
5. Nc1nc2ccc(Cl)cc2c2nc(-c3ccco3)nn12
6. CCCn1c(=O)c(C)cn2nc(N)nc12
7. COC(=O)C(N)Cc1ccc(Cl)cc1 (stereo not given)
8. Cn1cc(C(F)(F)F)nc1-c1ccc(OCC(O)CNCCOc2ccc(O)c(C(N)=O)c2)cc1 (stereo not given)

inactive
inactive
inactive
inactive
inactive
inactive
inactive
inactive
